B1: TPPP (parent)
chain: LCKDCQVIDGRNVTVTDVDIVFSK

# Variants of: B1
# assayNotes: protein stability index of a GFP-peptide fusion (GPS, HEK-293T) (PSI 1-6); higher = more stable;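 note: lentivirally expressed fusions sorted by FACS into six bins by GFP to DsRed ratio, PSI derived from sequencing read proportions per bin multiplied by bin number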
# assaySetup: c terminus: a fixed tail appended
Give protein stability index for every item shown.
Write the number on its own, no unit after it.

Field request: protein stability index | item: "F22N"
3.66

Tell me the measured protein stability index of "K3M" , please.
1.78

// lookup protein stability index for "Q6C"
2.09
